- Target or test system: Human MC1R (Homo sapiens)
- Construct: endogenous in cells; host or cells: human melanoma cell line HBL
- Sequence (Q01726 whole entry): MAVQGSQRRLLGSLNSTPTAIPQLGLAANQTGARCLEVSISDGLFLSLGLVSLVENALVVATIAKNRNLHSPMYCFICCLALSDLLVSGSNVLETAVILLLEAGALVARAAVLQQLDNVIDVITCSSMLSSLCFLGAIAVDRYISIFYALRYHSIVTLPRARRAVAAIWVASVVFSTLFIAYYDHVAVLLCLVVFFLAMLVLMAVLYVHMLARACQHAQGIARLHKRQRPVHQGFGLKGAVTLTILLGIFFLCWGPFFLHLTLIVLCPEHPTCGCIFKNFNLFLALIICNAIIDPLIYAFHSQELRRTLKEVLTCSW
- Assay summary: MCR agonist measurement (cAMP measurement), human MC1R agonist activity in human melanoma cell line HBL
- Assay type: cell-based
- Experimental context: Intrinsic Activity; vehicle cAMP = 0%, αMSH at 10^-6 M = 100%; HBL cells
Reported Human MC1R IA % values are given for each entry in this list.

Compound: CCc1ccc([C@@H]2CN(C(C)(C)C)C[C@@]2(F)C(=O)N2CCC(c3ccc(C(F)(F)F)cc3N3CCC(C(=O)O)CC3)CC2)cc1
Human MC1R IA %: 74%
//
Compound: COc1ccc([C@@H]2CN(C(C)(C)C)C[C@@]2(F)C(=O)N2CCC(c3ccc(C(F)(F)F)cc3OCCCc3noc(=O)[nH]3)CC2)cc1.Cl
Human MC1R IA %: 91%
//
Compound: COc1ccc([C@@H]2CN(C(C)(C)C)C[C@@]2(F)C(=O)N2CCC(c3ccc(C(F)(F)F)cc3N3CCC(C(N)=O)CC3)CC2)cc1
Human MC1R IA %: 95%
//
Compound: COc1ccc([C@@H]2CN(C(C)(C)C)C[C@@]2(F)C(=O)N2CCC(c3ccc(C(F)(F)F)cc3-c3nc(C(=O)O)co3)CC2)cc1
Human MC1R IA %: 103%
//
Compound: COC[C@@H]1C[C@@H](c2ccc(C(F)(F)F)cc2N2CCC(C(=O)O)CC2)CN1C(=O)[C@]1(F)CN(C2CCCCC2)C[C@H]1c1ccc(OC)cc1
Human MC1R IA %: 111%
//
Compound: COC[C@H]1CN(C(=O)[C@]2(F)CN(C3CCOCC3)C[C@H]2c2ccc(OC)cc2)C[C@@H]1c1ccc(C(F)(F)F)cc1N1CCC(c2nnn[nH]2)CC1.Cl.Cl
Human MC1R IA %: 90%
//
Compound: COc1ccc([C@@H]2CN(C3CCCC3)C[C@@]2(F)C(=O)N2C[C@H](c3ccc(C(F)(F)F)cc3N3CCC(C(=O)O)CC3)C[C@H]2CC#N)cc1 [Example 105]
Human MC1R IA %: 86%
//
Compound: COc1ccc([C@@H]2CN(C3CCOC3)C[C@@]2(F)C(=O)N2CCC(c3ccc(C(F)(F)F)cc3N3CCC(C(=O)O)CC3)CC2)cc1 (stereo partly shown) [Example 289]
Human MC1R IA %: 55%
//
Compound: COc1ccc([C@@H]2CN([C@H]3CC[C@H](OC)CC3)C[C@@]2(F)C(=O)N2CCC(c3ccc(C(F)(F)F)cc3N3CCC(C(=O)O)CC3)CC2)cc1
Human MC1R IA %: 89%
//
Compound: COC[C@H]1CN(C(=O)[C@]2(F)CN(C3CCOCC3)C[C@H]2c2ccc(OC)cc2)C[C@@H]1c1ccc(C(F)(F)F)cc1N1CCC(C#N)CC1.Cl.Cl
Human MC1R IA %: 46%
